Ki: recorded values
target: UniProtKB P28223; test: Radioligand binding assay ([3H]-ketanserin) on membranes of HEK293 EBNA cells expressing human 5-HT2A receptor; conditions: read-out: 5HT2A Ki
Note: unit nM is implicit; provide only the numeric part.

**Q:** What does the record list as Ki for `O=C(CC1(O)CCCCC1)N[C@H]1CC[C@H](CCN2CCC(c3cccc4c3OCO4)CC2)CC1` ?
**A:** 15.7

**Q:** What does the record list as Ki for O=C(N[C@H]1CC[C@H](CCN2CCC(c3cccc4c3OCO4)CC2)CC1)C1CC(Cl)C1 (some centres unmarked) ?
**A:** 18.6

**Q:** What does the record list as Ki for `O=C(C[C@H]1CCCCO1)N[C@H]1CC[C@H](CCN2CCC(c3cccc4c3OCO4)CC2)CC1` ?
**A:** 12.6

**Q:** What does the record list as Ki for `O=C(N[C@H]1CC[C@H](CCN2CCC(c3cccc4c3OCO4)CC2)CC1)c1ccccc1` ?
**A:** 5.14

**Q:** What does the record list as Ki for `CC(C)(O)C(=O)N[C@H]1CC[C@H](CCN2CCC(c3cccc4c3OCO4)CC2)CC1` ?
**A:** 4.77

**Q:** What does the record list as Ki for `COCC(=O)N[C@H]1CC[C@H](CCN2CCC(c3cccc4c3OCO4)CC2)CC1` ?
**A:** 14.6

**Q:** What does the record list as Ki for COC(C)CC(=O)N[C@H]1CC[C@H](CCN2CCC(c3cccc4c3OCO4)CC2)CC1 (some centres unmarked) ?
**A:** 33.6

**Q:** What does the record list as Ki for `O=C(C[C@@H]1CCCCO1)N[C@H]1CC[C@H](CCN2CCC(c3cccc4c3OCO4)CC2)CC1` ?
**A:** 27.9

* * *

Ki: recorded values
target: D2 receptor (Homo sapiens (Human), UniProt P14416); experiment: Radioligand binding assay ([3H]-spiperone) on membranes of HEK293 EBNA cells expressing human D2 receptor; details: human receptor in HEK293 EBNA cells; 0.7 nM [3H]-spiperone
Sequence (P14416 whole entry): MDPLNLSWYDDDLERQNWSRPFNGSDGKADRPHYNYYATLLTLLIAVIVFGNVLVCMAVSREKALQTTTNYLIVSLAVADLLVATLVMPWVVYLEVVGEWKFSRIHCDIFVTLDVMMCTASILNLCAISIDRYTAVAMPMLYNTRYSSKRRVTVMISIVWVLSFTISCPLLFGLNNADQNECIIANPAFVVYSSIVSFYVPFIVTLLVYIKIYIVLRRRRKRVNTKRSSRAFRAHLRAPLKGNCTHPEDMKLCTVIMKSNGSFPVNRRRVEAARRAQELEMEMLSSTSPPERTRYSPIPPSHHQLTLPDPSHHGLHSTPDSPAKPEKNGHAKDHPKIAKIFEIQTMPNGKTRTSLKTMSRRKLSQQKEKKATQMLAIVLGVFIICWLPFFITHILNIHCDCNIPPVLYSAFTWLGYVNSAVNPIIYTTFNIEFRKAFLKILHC
Answer with the number, then the unit.

Solved entries (count: 3):
molecularString: N#Cc1ccc(C(=O)N[C@H]2CC[C@H](CCN3CCC(c4cccc5c4OCO5)CC3)CC2)cc1
Ki: 153 nM
//
molecularString: CC1(C(=O)N[C@H]2CC[C@H](CCN3CCC(c4cccc5c4OCO5)CC3)CC2)COC1
Ki: 225 nM
//
molecularString: O=S(=O)(N[C@H]1CC[C@H](CCN2CCC(c3cccc4c3OCO4)CC2)CC1)c1ccc(F)cc1
Ki: 104 nM

**Q:** What does the record list as Ki for `O=C(C[C@@H]1CCCOC1)N[C@H]1CC[C@H](CCN2CCC(c3cccc4c3OCO4)CC2)CC1` ?
**A:** 322 nM

* * *

target: D2 receptor (Homo sapiens (Human)); experiment: Radioligand binding assay ([3H]-spiperone) on membranes of HEK293 EBNA cells expressing human D2 receptor; details: human receptor in HEK293 EBNA cells; 0.7 nM [3H]-spiperone
pKi: recorded values
Notebook: values listed as pKi are -log10 of the concentration (mol/L).

Solved entries (count: 7):
compound: O=C(CC1(O)CCCCC1)N[C@H]1CC[C@H](CCN2CCC(c3cccc4c3OCO4)CC2)CC1 [Example 21]
valueKind: pKi
quantitativeResult: 6.44
//
compound: O=C(CC1CCOCC1)N[C@H]1CC[C@H](CCN2CCC(c3cccc4c3OCO4)CC2)CC1 [Example 53]
valueKind: pKi
quantitativeResult: 6.45
//
compound: CO[C@H]1CC[C@H](CC(=O)N[C@H]2CC[C@H](CCN3CCC(c4cccc5c4OCO5)CC3)CC2)CC1 [Example 63]
valueKind: pKi
quantitativeResult: 6.44
//
compound: O=C(N[C@H]1CC[C@H](CCN2CCC(c3cccc4c3OCO4)CC2)CC1)c1ccnc2ccccc12 [Example 57]
valueKind: pKi
quantitativeResult: 6.43
//
compound: O=C(N[C@H]1CC[C@H](CCN2CCC(c3cccc4c3OCO4)CC2)CC1)C1CCC1 [Example 54]
valueKind: pKi
quantitativeResult: 7.00
//
compound: COCCC(=O)N[C@H]1CC[C@H](CCN2CCC(c3cccc4c3OCO4)CC2)CC1 [Example 2]
valueKind: pKi
quantitativeResult: 6.37
//
compound: O=C(N[C@H]1CC[C@H](CCN2CCC(c3cccc4c3OCO4)CC2)CC1)[C@@H](O)C(F)(F)F [Example 39]
valueKind: pKi
quantitativeResult: 6.55

Moving on to the next compound.
**Q:** What does the record list as pKi for O=C(CC1(O)CCC1)N[C@H]1CC[C@H](CCN2CCC(c3cccc4c3OCO4)CC2)CC1 [Example 45] ?
**A:** 6.58

* * *

Ki: recorded values
biological target: D3 receptor (Homo sapiens (Human), UniProt P35462); assay: Radioligand binding assay ([3H]-spiperone) on membranes of HEK293 EBNA cells expressing human D3 receptor; conditions: read-out: D3 Ki; human receptor in HEK293 EBNA cells; 0.5 nM [3H]-spiperone
Sequence (P35462 whole entry): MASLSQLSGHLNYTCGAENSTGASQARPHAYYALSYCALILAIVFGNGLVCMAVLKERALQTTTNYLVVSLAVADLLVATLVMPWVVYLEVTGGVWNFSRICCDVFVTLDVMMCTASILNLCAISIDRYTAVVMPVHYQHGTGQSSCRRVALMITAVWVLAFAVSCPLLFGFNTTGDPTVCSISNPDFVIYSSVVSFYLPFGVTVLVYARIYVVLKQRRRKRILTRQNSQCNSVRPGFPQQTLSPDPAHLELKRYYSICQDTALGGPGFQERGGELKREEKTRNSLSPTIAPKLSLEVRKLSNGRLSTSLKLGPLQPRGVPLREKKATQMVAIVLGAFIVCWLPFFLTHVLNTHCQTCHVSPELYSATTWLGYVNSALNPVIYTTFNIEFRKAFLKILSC
Note: unit nM is implicit; provide only the numeric part.

Solved entries (count: 8):
compound: Cc1ccc(C(=O)N[C@H]2CC[C@H](CCN3CCC(c4cccc5c4OCO5)CC3)CC2)cn1
units: nM
Ki: 11.6
--
compound: O=C(C[C@@H]1CCCO1)N[C@H]1CC[C@H](CCN2CCC(c3cccc4c3OCO4)CC2)CC1
units: nM
Ki: 6.41
--
compound: O=C(C[C@@H]1CCCCO1)N[C@H]1CC[C@H](CCN2CCC(c3cccc4c3OCO4)CC2)CC1
units: nM
Ki: 9
--
compound: CO[C@H]1CC[C@H](CC(=O)N[C@H]2CC[C@H](CCN3CCC(c4cccc5c4OCO5)CC3)CC2)CC1
units: nM
Ki: 8.13
--
compound: CO[C@@H](C)C(=O)N[C@H]1CC[C@H](CCN2CCC(c3cccc4c3OCO4)CC2)CC1
units: nM
Ki: 50.3
--
compound: O=C(N[C@H]1CC[C@H](CCN2CCC(c3cccc4c3OCO4)CC2)CC1)C1CC1(F)F (stereo partly shown)
units: nM
Ki: 7.72
--
compound: O=C(N[C@H]1CC[C@H](CCN2CCC(c3cccc4c3OCO4)CC2)CC1)c1ccc2c(c1)OCCO2
units: nM
Ki: 3.7
--
compound: O=C(CC(F)(F)F)N[C@H]1CC[C@H](CCN2CCC(c3cccc4c3OCO4)CC2)CC1
units: nM
Ki: 3.98

**Q:** What does the record list as Ki for `O=C(N[C@H]1CC[C@H](CCN2CCC(c3cccc4c3OCO4)CC2)CC1)C1(O)CCCCC1` ?
**A:** 17.5

* * *

Ki: recorded values
target: 5-HT2A receptor (Homo sapiens (Human), UniProt P28223); test: Radioligand binding assay ([3H]-ketanserin) on membranes of HEK293 EBNA cells expressing human 5-HT2A receptor; details: read-out: 5HT2A Ki; human receptor in HEK293 EBNA cells; 1.1 nM [3H]-ketanserin
Note: unit nM is implicit; provide only the numeric part.

**Q:** What does the record list as Ki for `O=C(N[C@H]1CC[C@H](CCN2CCC(c3cccc4c3OCO4)CC2)CC1)c1ccnc2ccccc12` ?
**A:** 23.1

**Q:** What does the record list as Ki for `O=C(CF)N[C@H]1CC[C@H](CCN2CCC(c3cccc4c3OCO4)CC2)CC1` ?
**A:** 39.9

**Q:** What does the record list as Ki for `O=C(CC1CC1)N[C@H]1CC[C@H](CCN2CCC(c3cccc4c3OCO4)CC2)CC1` ?
**A:** 17.6

**Q:** What does the record list as Ki for `CN1CCC(C(=O)N[C@H]2CC[C@H](CCN3CCC(c4cccc5c4OCO5)CC3)CC2)CC1` ?
**A:** 5.91

**Q:** What does the record list as Ki for `O=C(CCC(F)(F)F)N[C@H]1CC[C@H](CCN2CCC(c3cccc4c3OCO4)CC2)CC1` ?
**A:** 32

**Q:** What does the record list as Ki for `O=C(N[C@H]1CC[C@H](CCN2CCC(c3cccc4c3OCO4)CC2)CC1)C(F)(F)F` ?
**A:** 37.4

* * *

Ki: recorded values
biological target: 5-HT2A receptor (Homo sapiens (Human), UniProt P28223); assay: Radioligand binding assay ([3H]-ketanserin) on membranes of HEK293 EBNA cells expressing human 5-HT2A receptor; details: read-out: 5HT2A Ki
Note: unit nM is implicit; provide only the numeric part.

**Q:** What does the record list as Ki for O=C(N[C@H]1CC[C@H](CCN2CCC(c3cccc4c3OCO4)CC2)CC1)[C@@H](O)C(F)(F)F [Example 39] ?
**A:** 19.4

**Q:** What does the record list as Ki for O=C(N[C@H]1CC[C@H](CCN2CCC(c3cccc4c3OCO4)CC2)CC1)C1(O)CC1 [Example 49] ?
**A:** 8.17

**Q:** What does the record list as Ki for N#CCC(=O)N[C@H]1CC[C@H](CCN2CCC(c3cccc4c3OCO4)CC2)CC1 [Example 20] ?
**A:** 22.4
